src = PubChem BioAssay AID602261

Tgt: Fatty acid synthase (Homo sapiens) (UniProt P49327)
Sequence (P49327 whole entry, looked up): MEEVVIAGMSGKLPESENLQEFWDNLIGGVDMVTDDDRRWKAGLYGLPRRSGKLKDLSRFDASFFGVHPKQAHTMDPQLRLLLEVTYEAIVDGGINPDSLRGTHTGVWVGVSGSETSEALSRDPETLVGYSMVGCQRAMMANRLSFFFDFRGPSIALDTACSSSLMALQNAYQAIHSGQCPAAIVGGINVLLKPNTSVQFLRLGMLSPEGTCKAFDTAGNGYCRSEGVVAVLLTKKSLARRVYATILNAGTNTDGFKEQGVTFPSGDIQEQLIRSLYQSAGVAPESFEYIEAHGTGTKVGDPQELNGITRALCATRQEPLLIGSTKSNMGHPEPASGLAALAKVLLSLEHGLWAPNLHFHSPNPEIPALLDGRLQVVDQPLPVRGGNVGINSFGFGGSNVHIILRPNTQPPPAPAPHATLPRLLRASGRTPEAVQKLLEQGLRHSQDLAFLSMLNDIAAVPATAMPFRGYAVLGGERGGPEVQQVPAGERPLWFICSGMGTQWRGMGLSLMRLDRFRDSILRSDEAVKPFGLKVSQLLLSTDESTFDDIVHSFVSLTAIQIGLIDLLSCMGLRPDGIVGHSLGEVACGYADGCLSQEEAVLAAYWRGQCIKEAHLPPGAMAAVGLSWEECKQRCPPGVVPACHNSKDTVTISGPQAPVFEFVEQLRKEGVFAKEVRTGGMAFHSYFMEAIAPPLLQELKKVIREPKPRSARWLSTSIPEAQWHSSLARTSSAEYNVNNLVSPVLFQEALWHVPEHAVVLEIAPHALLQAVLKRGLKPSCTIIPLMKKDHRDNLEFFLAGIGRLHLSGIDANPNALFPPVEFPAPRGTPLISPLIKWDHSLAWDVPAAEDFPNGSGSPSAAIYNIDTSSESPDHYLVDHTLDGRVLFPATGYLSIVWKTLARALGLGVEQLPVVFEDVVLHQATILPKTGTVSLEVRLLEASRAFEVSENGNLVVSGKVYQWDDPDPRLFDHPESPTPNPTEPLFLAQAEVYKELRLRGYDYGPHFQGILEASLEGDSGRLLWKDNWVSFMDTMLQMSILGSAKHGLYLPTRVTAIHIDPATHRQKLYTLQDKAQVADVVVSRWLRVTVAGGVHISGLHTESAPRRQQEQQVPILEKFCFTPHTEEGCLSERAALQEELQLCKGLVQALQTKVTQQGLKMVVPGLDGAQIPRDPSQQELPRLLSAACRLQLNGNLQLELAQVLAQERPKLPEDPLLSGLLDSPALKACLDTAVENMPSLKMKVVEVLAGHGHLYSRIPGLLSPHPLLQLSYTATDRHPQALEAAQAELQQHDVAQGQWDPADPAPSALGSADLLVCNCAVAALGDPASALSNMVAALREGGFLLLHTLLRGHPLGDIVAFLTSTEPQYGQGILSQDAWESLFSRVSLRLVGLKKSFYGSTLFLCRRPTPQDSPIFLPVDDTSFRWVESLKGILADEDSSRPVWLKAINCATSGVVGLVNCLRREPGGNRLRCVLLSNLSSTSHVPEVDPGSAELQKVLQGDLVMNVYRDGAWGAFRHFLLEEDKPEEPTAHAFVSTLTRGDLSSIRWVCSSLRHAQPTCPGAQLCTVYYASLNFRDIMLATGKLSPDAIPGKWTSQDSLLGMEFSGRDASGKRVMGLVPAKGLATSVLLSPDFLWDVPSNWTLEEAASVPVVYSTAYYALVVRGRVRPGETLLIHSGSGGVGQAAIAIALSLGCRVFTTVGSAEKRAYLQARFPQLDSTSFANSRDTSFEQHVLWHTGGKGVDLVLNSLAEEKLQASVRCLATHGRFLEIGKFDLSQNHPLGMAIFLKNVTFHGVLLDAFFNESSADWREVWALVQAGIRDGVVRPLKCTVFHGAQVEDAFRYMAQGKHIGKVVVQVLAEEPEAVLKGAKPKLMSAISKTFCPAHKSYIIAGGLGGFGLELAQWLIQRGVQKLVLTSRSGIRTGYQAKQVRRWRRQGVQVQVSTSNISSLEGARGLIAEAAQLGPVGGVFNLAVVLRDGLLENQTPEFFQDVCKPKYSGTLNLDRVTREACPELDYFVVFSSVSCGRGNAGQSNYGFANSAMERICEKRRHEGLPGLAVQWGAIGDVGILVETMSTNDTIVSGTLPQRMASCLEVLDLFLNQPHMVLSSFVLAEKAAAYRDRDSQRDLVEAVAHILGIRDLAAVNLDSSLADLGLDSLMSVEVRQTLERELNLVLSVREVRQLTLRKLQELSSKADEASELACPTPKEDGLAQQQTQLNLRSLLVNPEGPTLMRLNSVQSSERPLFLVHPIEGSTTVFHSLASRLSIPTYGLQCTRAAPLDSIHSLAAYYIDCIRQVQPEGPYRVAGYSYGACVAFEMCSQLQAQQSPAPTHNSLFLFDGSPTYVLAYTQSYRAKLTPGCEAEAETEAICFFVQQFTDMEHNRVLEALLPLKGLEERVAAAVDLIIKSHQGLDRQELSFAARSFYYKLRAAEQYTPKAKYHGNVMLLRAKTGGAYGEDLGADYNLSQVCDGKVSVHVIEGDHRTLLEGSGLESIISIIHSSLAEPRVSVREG
Protocol details: inhibition of human FAS-TE enzyme activity – biochemical, fluorescence intensity, uHTS, primary screen (AID 602261);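 also: 0% = DMSO with enzyme and 100% = substrate without enzyme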
Experimental context: recombinant FAS-TE, OMFH fluorogenic substrate, fluorescence endpoint; at 15 µM
In all, about 360,000 compounds went through this assay and about 2,400 (0.67%) were called active.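 The calls were made as follows: active = compounds whose normalised, plate-corrected inhibition of enzyme fluorescence in the single-dose primary screen is 50% or more; inactive = the rest.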 What follows is part of a selection rich in actives, with near analogues and random picks from the rest.
Classes used: True = active, False = inactive

COc1ccc(NS(=O)(=O)c2cc(NC(=O)C3CCCCC3)ccc2N2CCOCC2)cc1: False
CC(=O)Nc1ccc2c3c(ccc([N+](=O)[O-])c13)CC2: False
Cc1ccnc(NC(=O)c2ccc(Cl)c([N+](=O)[O-])c2)c1: False
Cc1cccc(NC(=O)C(C)N2C(=O)C3C4CC(C(Br)C4Br)C3C2=O)c1 (stereo unspecified): False
CCOc1ccc(Nc2nc(Cl)nc(N3CCN(c4ccc(OC)cc4)CC3)n2)cc1: True
CSCCC(NC(=O)COc1ccccc1)C(=O)OCC(=O)c1cc2ccccc2o1 (stereo unspecified): True
COc1ccc(NS(=O)(=O)c2cc(NC(=O)/C=C/c3cc(OC)c(OC)c(OC)c3)ccc2N2CCCCC2)cc1: True
COc1ccccc1C1CCN(C(=S)Nc2ccc(Br)cc2)CC1: False
O=C(CCCl)Nc1ccc(S(=O)(=O)NCc2ccco2)cc1: False
Cc1ccc(C(=O)C(=S)N2CCOCC2)cc1: False
CSc1ccccc1NC(=O)c1cnc2sc(C)cn2c1=O: False
COc1c(C)cc(C(O)c2ncc(-c3cccc(C(F)(F)F)c3)[nH]2)cc1C (stereo unspecified): False
Cc1ccc(S(=O)(=O)Nc2ccc3c(c2)C(=O)N([C@H](C)CO)C[C@@H](C)[C@@H](CN(C)C(=O)Nc2cccc4ccccc24)O3)cc1: False
CC(C)CC(=O)c1c[nH]c(C(=O)NCc2ccccc2)c1: False
Cc1cc(C)c2nc(-c3cccnc3)cc(C(=O)Nc3ccc(S(=O)(=O)Nc4onc(C)c4C)cc3)c2c1: False
CSCCC(NC(=O)COc1ccccc1)C(=O)OCCOc1ccc(Br)cc1 (stereo unspecified): False
COc1ccc(Nc2ncc(F)c(N3CCOCC3)n2)cc1: False
O=C(NCCC1=CCCCC1)c1ccc(Cl)c([N+](=O)[O-])c1: True
COc1ccc(NS(=O)(=O)c2ccc(N3CCN(CCO)CC3)c([N+](=O)[O-])c2)cc1: False
O=C(NCc1ccccc1)C1CCN(C(=O)Cc2ccccc2)CC1: False
COc1cccc2c1CCC(NC(C)=O)C2=O (stereo unspecified): False

====

Examples of compounds with documented inhibition follow.
Tgt: Fatty acid synthase (Homo sapiens)
Protocol details: inhibition of human FAS-TE enzyme activity – biochemical, fluorescence intensity, uHTS, primary screen (AID 602261);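 also: 0% = DMSO with enzyme and 100% = substrate without enzyme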
Experimental context: recombinant FAS-TE, OMFH fluorogenic substrate, fluorescence endpoint; at 15 µM; stronger effect = higher value
Among all 360,000 compounds or so, about 2,400 (0.67%) were called active. What follows is part of a selection rich in actives, with near analogues and random picks from the rest.
Readout kind: inhibition (%)

O=C1OCCN1C(=O)[C@H]1[C@H](c2ccc(Cl)cc2)C(c2cccc(Cl)c2)=NN1c1ccc(Br)cc1: 67.3
COCC(=O)N(C)C[C@H]1Oc2cc(Br)ccc2S(=O)(=O)N([C@H](C)CO)C[C@H]1C: -6
COc1ccc([N+](=O)[O-])cc1NC(=O)COC(=O)/C=C/c1ccco1: 71.2
NC1=NC(=O)C2(COC(c3ccccc3Cl)OC2)S1 (centres undefined): -3.8
Cc1cccc(CN2CCN(Cc3cnn(-c4ccccc4F)c3)CC2CCO)n1 (centres undefined): -8
O=C1OCCN1C(=O)[C@H]1[C@H](c2ccc(F)cc2)C(c2ccccc2)=NN1c1ccc(Br)cc1: 46.2
CC1(c2ccccc2Cl)NC(=O)N(CC(=O)NC(=O)NCc2ccco2)C1=O (centres undefined): -2.3
CSCCC(NC(=O)c1cc([N+](=O)[O-])cc([N+](=O)[O-])c1)c1nc2ccccc2[nH]1 (centres undefined): 32.8
Cc1cccc([C@@H]2[C@@H]3C(=O)N(C)C(=O)[C@@H]3[C@@H]3C(=O)Nc4ccccc4C(=O)N23)c1: -6.8
CC(=O)c1c(C)[nH]c(C(=O)N2CCN(S(=O)(=O)c3ccc(F)c(F)c3)CC2)c1C: -3.9
Cc1cccc(-n2c(SCC(=O)Nc3cccc(S(=O)(=O)NC4=NCCCCC4)c3)nc3ccccc3c2=O)c1C: 71.3
COc1ccc(C(=O)NN2C(=O)C3C(c4ccccc4)C=CC(c4ccccc4)C3C2=O)cc1 (centres undefined): 33.6
CC(C)[C@@H]1COC(c2cccc(C3=N[C@H](C(C)C)CO3)c2)=N1: 1.1
COc1cccc(-c2sc3ccc(OC)cc3c2-c2ccc(OCCN3CCCCC3)cc2)c1: 15.5
CC(NC(=O)C1CCC(CNc2c(N3CCOCC3)c(=O)c2=O)CC1)c1ccccc1 (centres undefined): 3.6
COc1ccccc1C(=O)OCC(=O)Nc1cccc(S(=O)(=O)NC2=NCCCCC2)c1: -6.9
CC(C)Oc1ccc(CCc2n[nH]c(=S)n2Cc2ccccc2)cc1: 19.3
O=C(NC1CCCC1)C1c2ccccc2OCC(=O)N1Cc1ccccc1 (centres undefined): -7.8
CCOC(=O)Nc1ccc(S(=O)(=O)N(C)C(C)C)cc1: -3.7

====

Examples of compounds with documented inhibition follow.
Tgt: Fatty acid synthase (Homo sapiens)
Protocol details: inhibition of human FAS-TE enzyme activity – biochemical, fluorescence intensity, uHTS, primary screen (AID 602261);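 also: 0% = DMSO with enzyme and 100% = substrate without enzyme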
Experimental context: recombinant FAS-TE, OMFH fluorogenic substrate, fluorescence endpoint; at 15 µM; stronger effect = higher value
The campaign covered roughly 360,000 compounds. About 2,400 (0.67%) were called active. The entries come from a sample that favours actives as a whole.
Readout kind: inhibition (%)

COc1ccc(NC2=CC(=S)NC(C)(C)C2)cc1: -11
CCOC(=O)C1=CC[C@@H](c2ccccc2)N(S(=O)(=O)c2ccc(C)cc2)[C@H]1c1ccc(CC)cc1: 31.8
Cc1ccc2c(c1)C(O)(CC(=O)c1cccc(-n3cccc3)c1)C(=O)N2 (stereo not drawn): 2.6
CCOC1=C2[C@H]([C@H]3C(=O)N(c4ccccc4)C(=O)[C@H]3C1)[C@@H](c1ccccc1)N(S(=O)(=O)c1ccc(C)cc1)[C@H]2c1ccccc1: 69.2
Cc1ccc(S(=O)(=O)N2C[C@@H](C)[C@]3(C2)[C@H](O)[C@H](OC(=O)NCc2ccccc2)C[C@H]2C(=O)N(c4ccccc4)C(=O)[C@H]23)cc1: 18.7
COc1ccccc1CNS(=O)(=O)CC12CCC(CC1=O)C2(C)C (stereo not drawn): 2.9
CCCc1cc(-c2nc(-c3ccc(C)cc3)cs2)ccn1: 56.3
CCOC1=C2CN(S(=O)(=O)c3ccc(C)cc3)[C@H](c3cccs3)C[C@H]2[C@H]2C(=O)N(c3ccccc3)C(=O)[C@H]2C1: 58
CCOC1=C2[C@@H](CN(S(=O)(=O)c3ccc(C)cc3)[C@H]2c2ccccc2F)[C@H]2C(=O)N(Cc3ccccc3)C(=O)[C@H]2C1: 35.8
COc1ccc([N+](=O)[O-])cc1NC(=O)CC1SC(=Nc2cccc(C)c2C)N(/N=C(\C)c2ccc(C)cc2)C1=O (stereo not drawn): 75.8
COCCN1C2=C(COC(C)(C)C2)C(=S)NC1c1ccccc1 (stereo not drawn): -8.2
Cc1ccc(S/C(=N\S(=O)(=O)c2ccc(Cl)cc2)c2ccccc2)cc1: 57.1
COc1ccc(S(=O)(=O)N2CCOCC2)cc1NC(=O)COc1ccccc1: 2.1
COc1cccc(CNS(=O)(=O)c2cc3c(cc2C)n(C)c(=O)c(=O)n3C)c1: -4.2
Cc1ccc(S(=O)(=O)/N=C(/Nc2ccccn2)c2ccc(Cl)cc2)cc1: 2.1
CN1C(C(=O)NCc2ccco2)CC2Cn3c(nc4ccccc43)C21 (stereo not drawn): -11.9
COc1ccc([N+](=O)[O-])cc1NCC(=O)c1ccc(C)cc1: 11.8
O=C(NCCCn1ccnc1)C(=O)NCC1OCCN1S(=O)(=O)c1cc(F)ccc1F (stereo not drawn): -10.1

====

Tgt: Fatty acid synthase (Homo sapiens)
Protocol details: inhibition of human FAS-TE enzyme activity – biochemical, fluorescence intensity, uHTS, primary screen (AID 602261);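 also: 0% = DMSO with enzyme and 100% = substrate without enzyme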
Experimental context: recombinant FAS-TE, OMFH fluorogenic substrate, fluorescence endpoint; at 15 µM; stronger effect = higher value
Out of some 360,000 compounds screened, about 2,400 (0.67%) were called active. The sample as a whole holds a higher share of actives than the screen did.
Examples of compounds with documented inhibition follow.
Readout kind: inhibition (%)

NS(=O)(=O)c1cccc(NC(=O)COC(=O)c2cc([N+](=O)[O-])ccc2N2CCCC2)c1: 26.9
CCOc1ccccc1N(CC(=O)NC1CCCCC1)C(=O)CCCC(=O)Nc1ccccn1: -7.1
Cc1cccc(OCC(=O)OCC(=O)Nc2ccc(Cl)cn2)c1: -6.1
O=C(Nc1cccc(Cl)c1)c1cc([N+](=O)[O-])ccc1N1CCN(CCO)CC1: 68.1
COc1ccc2c(c1)[C@H]1[C@H](CO2)[C@H](c2ccccc2)[C@]2(C)C(=O)Nc3cc(F)c(F)cc3C(=O)N12: 71.2
Cc1ccc2c(c1)NC(=O)[C@@]1(C)[C@@H](c3ccccc3)[C@H]3COc4ccc(Cl)cc4[C@@H]3N1C2=O: 15.6
COc1ccc(C(C)=O)cc1COC(=O)Cn1cnc2ccccc2c1=O: -2.7
Cc1cccc(NC(=O)c2cc([N+](=O)[O-])ccc2N2CCN(C)CC2)c1: 56.8
O=C(Nc1cccc([N+](=O)[O-])c1)N1CCc2ccccc2C1: 52.5
